Values were extracted from the kinase profiling compilation of Christmann-Franck et al. (2016).

molecular target: MYLK (human); assay: radiometric filter-binding kinase assay; conditions: compound 10.0 µM
Result Type: residual activity (%)

O=C(Nc1ccccc1-c1cn2c(CN3CCNCC3)csc2n1)c1cnc2ccccc2n1 | 10
FC(F)(F)c1ccc(-c2ccc(Oc3cncc4sc(-c5nn[nH]n5)cc34)cc2)cc1 | 42
O=c1c(O)c(-c2ccc(O)c(O)c2)oc2cc(O)c(O)c(O)c12 | 23

I: CC(C)C[C@H](NC(=O)CNC(=O)c1cc(Cl)ccc1Cl)B1OC(=O)CC(CC(=O)O)(C(=O)O)O1 (stereo not given in full)
II: O=C1Nc2nc(-c3c(O)cccc3OCC3CC3)cc(C3CCCNC3)c2CO1 (stereo not given)
Just tell me: smaller residual activity value, I or II ? Indicate which entry you chose by stating its label.
II

a: Nc1cccc2c1CN(C1CCC(=O)NC1=O)C2=O (stereo not given)
b: O=C(Nc1cccnc1)c1cc(-c2ccnc(F)c2)ccc1OCc1ccccc1
Given the two records a and b , choose the one whose residual activity value is lower. State your choice using its label.
b
(b: 23%, a: 94%)
